B1: SOAT1 (parent)
chain: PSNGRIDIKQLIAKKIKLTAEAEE

Variants of: B1
Assay: protein stability index of a GFP-peptide fusion (GPS, HEK-293T) (PSI 1-6); higher = more stable;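 further: lentivirally expressed fusions sorted by FACS into six bins by GFP to DsRed ratio, PSI derived from sequencing read proportions per bin multiplied by bin number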
Conditions: c terminus: a fixed tail appended
Assign protein stability index to each entry below.
// response body must contain only the number

Exercise: Need protein stability index of `PSNGRIDIKQLIAKKIKLTAEWEE` , thanks.
Solution: 2.48

Exercise: Try `PSNGRIDIKQLIAKKIKLGAEAEE` next.
Solution: 3.17

Exercise: Queued: `PSNGRIDIKCLIAKKIKLTAEAEE`
Solution: 3.19

Exercise: Query `PSNGRYDIKQLIAKKIKLTAEAEE` next
Solution: 3.51

Exercise: Now the same for `DSNGRIDIKQLIAKKIKLTAEAEE`
Solution: 3.27

Exercise: One more variant: `PSNGRIDIKQLIAKKIKQTAEAEE`
Solution: 3.89

Exercise: Similarly, `PSNGRIDIKQLIAKKIKLTAGAEE` ?
Solution: 2.63

Exercise: Can you check `PSNGRIDIKQLIANKIKLTAEAEE` next?
Solution: 3.59

Exercise: Again, but for `PSNGRIDIKQLIAKKIKFTAEAEE`
Solution: 3.38

Exercise: Continue with `PSNGRIDIKQLIAKKIKLKAEAEE`
Solution: 2.52

Exercise: Then `PSNGRIGIKQLIAKKIKLTAEAEE` ?
Solution: 3.02

Exercise: Also `PSNGRIDIKQLIAKKIKLTGEAEE` ?
Solution: 3.42

Exercise: Okay, and `PSNGRIYIKQLIAKKIKLTAEAEE` ?
Solution: 2.35

Exercise: Quick one: `GSNGRIDIKQLIAKKIKLTAEAEE`
Solution: 3.33

Exercise: Thanks! And `PSNGVIDIKQLIAKKIKLTAEAEE` ?
Solution: 3.82

Exercise: Item: `PSNGRIDIKQLIAKKIKLTAEACE`
Solution: 2.33

Exercise: Also, `PSNGRLDIKQLIAKKIKLTAEAEE` please.
Solution: 3.18

Exercise: Proceed to `PSFGRIDIKQLIAKKIKLTAEAEE`
Solution: 3.55

Exercise: Next variant: `PSNGRIDIKQLIAKKDKLTAEAEE`
Solution: 4.42

Exercise: Now this one: `PSNGRIDIKQLIAKKNKLTAEAEE`
Solution: 4.02

Exercise: Would you kindly repeat that for `PSNGRIDIKQLIAKKIKLTAFAEE` ?
Solution: 1.97

Exercise: Same thing, different variant: `PSNGRIDIKQLIAKKIKLTDEAEE`
Solution: 3.16

Exercise: Input `PSNYRIDIKQLIAKKIKLTAEAEE`
Solution: 2.91

Exercise: Param item: `PSNGRIDIKQLIAKKIKLTAKAEE`
Solution: 2.51

Exercise: One more variant: `PSNGRQDIKQLIAKKIKLTAEAEE`
Solution: 3.76

Exercise: And the next one, `ISNGRIDIKQLIAKKIKLTAEAEE` ?
Solution: 3.57

Exercise: Another: `PSNGRIDIKQAIAKKIKLTAEAEE`
Solution: 3.83

Exercise: // query: `PSNGRIDIKQLIASKIKLTAEAEE`
Solution: 3.84

Exercise: Likewise for `PSNGRIDIKILIAKKIKLTAEAEE` ?
Solution: 2.18

Exercise: Same lookup for `PSNGRIDIKQLIAKKIKMTAEAEE` , please.
Solution: 3.27

Exercise: Repeat for the following variant: `PSNGRIDIKQLIAKKIKCTAEAEE`
Solution: 3.67

Exercise: Moving on to `PRNGRIDIKQLIAKKIKLTAEAEE`
Solution: 3.08

Exercise: Please give the result for `PSNGRIDIKQLIAKKQKLTAEAEE` too.
Solution: 3.52

Exercise: Now consider `PSNGRIDIKQLILKKIKLTAEAEE` .
Solution: 3.13

Exercise: Thanks! And `PGNGRIDIKQLIAKKIKLTAEAEE` ?
Solution: 3.64

Exercise: Try the variant `PSNGRIDLKQLIAKKIKLTAEAEE`
Solution: 3.62

Exercise: Similarly, `PKNGRIDIKQLIAKKIKLTAEAEE` ?
Solution: 2.58

Exercise: Also, `PSNGRKDIKQLIAKKIKLTAEAEE` please.
Solution: 3.74

Exercise: How about `RSNGRIDIKQLIAKKIKLTAEAEE` ?
Solution: 3.35

Exercise: Follow-up entry: `PSNGRIDIKLLIAKKIKLTAEAEE`
Solution: 3.18
